Reference for the values: ChEMBL document CHEMBL4177543

- TESTED ON: UniProtKB O77759
- MEASUREMENT PROTOCOL: Inhibition of African green monkey SOAT2 expressed in CHO cell microsomal fractions assessed as reduction in neutral lipid synthesis incubated for 5 mins using [1-14C]oleoyl-CoA by thin-layer chromatography
Non-standard residues stand in square brackets, D forms with d. Residues, ends and D or L forms follow the SMILES beside them. *: point of attachment. NMeF = CN[C@@H](Cc1ccccc1)C(=O)O; NMeV = CN[C@H](C(=O)O)C(C)C; Butyryl = CCCC(=O)*; X1 = CN(Cc1nccs1)*
Each entry below lists one item and its recorded IC50 value.
Reply with just the number (in µM).

MOLECULE: CCCC(=O)N(C)[C@H](C(=O)N1CCC[C@H]1C(=O)N(C)[C@@H](Cc1ccccc1)C(=O)N[C@@H](CC(C)C)C(=O)N(C)[C@H](C(=O)N(C)Cc1nccs1)C(C)C)C(C)C (Butyryl-[NMeV]P[NMeF]L[NMeV]-X1)
TESTED ON: UniProtKB O77759
IC50 [µM]: 9.6
--
MOLECULE: CCCC(=O)N(C)[C@H](C(=O)N1CCC[C@H]1C(=O)N(C)[C@@H](Cc1ccccc1)C(=O)N[C@@H](CC(C)C)C(=O)N[C@H](C(=O)N(C)Cc1nccs1)C(C)C)C(C)C (Butyryl-[NMeV]P[NMeF]LV-X1)
TESTED ON: UniProtKB O77759
IC50 [µM]: 9.9

Input line: Given the molecule `COc1c([C@H](CC(C)C)OC(C)=O)ccc2c1C(=O)OCc1cc(C)cc(O)c1O2` , write its reported IC50.
Output line: 1.8

----------
- TESTED ON: Sterol O-acyltransferase 2 (Chlorocebus aethiops)
- Sequence (O77759 whole entry): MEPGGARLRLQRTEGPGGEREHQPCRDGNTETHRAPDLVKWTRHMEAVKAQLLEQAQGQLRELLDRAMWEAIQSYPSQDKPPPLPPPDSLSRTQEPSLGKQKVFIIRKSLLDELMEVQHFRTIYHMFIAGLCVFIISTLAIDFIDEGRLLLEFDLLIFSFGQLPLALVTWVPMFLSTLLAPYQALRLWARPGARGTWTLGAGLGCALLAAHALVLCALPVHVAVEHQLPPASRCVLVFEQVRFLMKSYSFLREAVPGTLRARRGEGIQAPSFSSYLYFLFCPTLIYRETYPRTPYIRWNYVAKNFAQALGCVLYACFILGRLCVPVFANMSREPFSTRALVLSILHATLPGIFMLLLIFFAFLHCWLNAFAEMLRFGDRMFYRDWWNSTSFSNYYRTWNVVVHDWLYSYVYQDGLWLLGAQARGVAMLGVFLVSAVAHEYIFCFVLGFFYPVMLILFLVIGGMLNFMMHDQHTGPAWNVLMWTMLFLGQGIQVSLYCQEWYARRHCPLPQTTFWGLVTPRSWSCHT
- MEASUREMENT PROTOCOL: Inhibition of African green monkey SOAT2 expressed in CHO cells assessed as reduction in neutral lipid synthesis incubated for 6 hrs using [1-14C]oleic acid by thin-layer chromatography
- Format: cell-based
Non-standard residues stand in square brackets, D forms with d. Residues, ends and D or L forms follow the SMILES beside them. *: point of attachment. NMeF = CN[C@@H](Cc1ccccc1)C(=O)O; NMeV = CN[C@H](C(=O)O)C(C)C; Butyryl = CCCC(=O)*; X1 = CN(Cc1nccs1)*
PROPERTY MEASURED: pIC50
pIC50 here: minus log base 10 of the concentration, concentration in moles per litre.

COMPOUND: CCCC(=O)N(C)[C@H](C(=O)N1CCC[C@H]1C(=O)N(C)[C@@H](Cc1ccccc1)C(=O)N[C@@H](CC(C)C)C(=O)N(C)[C@H](C(=O)N(C)Cc1nccs1)C(C)C)C(C)C (Butyryl-[NMeV]P[NMeF]L[NMeV]-X1)
REPORTED: 5.89

Input line: Given the compound CCCC(=O)N(C)[C@H](C(=O)N1CCC[C@H]1C(=O)N(C)[C@@H](Cc1ccccc1)C(=O)N[C@@H](CC(C)C)C(=O)N[C@H](C(=O)N(C)Cc1nccs1)C(C)C)C(C)C (Butyryl-[NMeV]P[NMeF]LV-X1) , write its reported pIC50.
Output line: 5.60

Input line: Given the compound CCCC(=O)N[C@H](C(=O)N1CCC[C@H]1C(=O)N(C)[C@@H](Cc1ccccc1)C(=O)N[C@@H](CC(C)C)C(=O)N(C)[C@H](C(=O)N(C)Cc1nccs1)C(C)C)C(C)C (Butyryl-VP[NMeF]L[NMeV]-X1) , write its reported pIC50.
Output line: 5.02

Input line: Given the compound `COc1c([C@H](CC(C)C)OC(C)=O)ccc2c1C(=O)OCc1cc(C)cc(O)c1O2` , write its reported pIC50.
Output line: 5.82
